Origin of measurements: ChEMBL document CHEMBL1275346

biological target: Transient receptor potential cation channel subfamily V member 1 (Rattus norvegicus, UniProt O35433); test: Displacement of [3H]RTX from rat TRPV1 expressed in CHO cells; assay type: cell-based
Sequence (O35433 whole entry): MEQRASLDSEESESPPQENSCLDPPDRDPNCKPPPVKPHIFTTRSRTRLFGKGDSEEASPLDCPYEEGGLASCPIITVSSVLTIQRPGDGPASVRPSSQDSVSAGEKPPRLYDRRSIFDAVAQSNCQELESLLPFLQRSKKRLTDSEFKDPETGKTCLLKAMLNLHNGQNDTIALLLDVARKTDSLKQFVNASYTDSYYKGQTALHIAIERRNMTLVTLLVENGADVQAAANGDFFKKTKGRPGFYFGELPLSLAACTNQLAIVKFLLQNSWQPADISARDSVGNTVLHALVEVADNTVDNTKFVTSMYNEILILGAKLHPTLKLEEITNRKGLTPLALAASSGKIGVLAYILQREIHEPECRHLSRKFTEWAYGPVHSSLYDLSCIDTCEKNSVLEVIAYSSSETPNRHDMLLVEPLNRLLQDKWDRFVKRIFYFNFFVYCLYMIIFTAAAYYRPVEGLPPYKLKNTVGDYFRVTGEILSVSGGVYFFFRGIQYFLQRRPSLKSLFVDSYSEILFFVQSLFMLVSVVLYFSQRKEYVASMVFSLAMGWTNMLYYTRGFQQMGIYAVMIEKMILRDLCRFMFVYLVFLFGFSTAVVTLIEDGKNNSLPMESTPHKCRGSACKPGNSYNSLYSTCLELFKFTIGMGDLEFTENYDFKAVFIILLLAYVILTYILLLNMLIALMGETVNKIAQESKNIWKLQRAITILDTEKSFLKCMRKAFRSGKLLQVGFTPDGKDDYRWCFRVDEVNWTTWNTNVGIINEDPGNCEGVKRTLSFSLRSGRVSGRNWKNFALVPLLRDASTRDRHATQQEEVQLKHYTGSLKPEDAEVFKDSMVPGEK
In plain terms, low Ki, meaning strictly below 0.1 µM, gives true, and everything else gives false.

[[record]]
molecule = "COc1cc(CC(=O)NCC(COC(=O)C(C)(C)C)Cc2ccc(C(C)(C)C)cc2)c(Br)cc1NS(C)(=O)=O (stereo unspecified)"
cat = "true"

[[record]]
molecule = "COc1cc(CC(=O)NCC(COC(=O)C(C)(C)C)Cc2ccc(C(C)(C)C)cc2)cc(Cl)c1N (stereo unspecified)"
cat = "true"

[[record]]
molecule = "COc1cc(CC(=O)NCC(COC(=O)C(C)(C)C)Cc2ccc(C(C)(C)C)cc2)ccc1N (stereo unspecified)"
cat = "false"

[[record]]
molecule = "COc1cc(CC(=O)NCC(COC(=O)C(C)(C)C)Cc2ccc(C(C)(C)C)cc2)c(Br)cc1OC(C)=O (stereo unspecified)"
cat = "true"

[[record]]
molecule = "CC(C)(C)C(=O)OCC(CNC(=O)Cc1ccc(N)c(Cl)c1)Cc1ccc(C(C)(C)C)cc1 (stereo unspecified)"
cat = "false"

[[record]]
molecule = "COc1cc(CC(=O)NCc2ccc(C(C)(C)C)cc2)c(I)cc1OC(C)=O"
cat = "false"

